- conditionContext: rat; liver microsomes; pH 7.4; 15.0 min; 1.0 µM
The class of a record is decided solely by its measured half-life; consult b0 = under 3 min, b1 = from 3 min up to 10 min, b2 = 10 min and over

molecule=CCOc1ccc(CCNC(=O)c2cc3ccccc3n2Cc2cc(C)cc(C)n2)cc1OCC classassignment=b0
molecule=CCOc1ccc(CCNC(=O)c2cc3sccc3n2Cc2ccccc2)c(F)c1OCC classassignment=b0
molecule=Cc1ccc(-c2cc(C(=O)Nc3ccc(S(N)(=O)=O)cc3)c3ccccc3n2)cc1C classassignment=b2
molecule="O=C1CCCC2=C1C1(CCS(=O)(=O)C1)N=C(Nc1nc3ccccc3o1)N2 (stereo not given)" classassignment=b2
molecule=Cc1cc(C)cc(C(=O)Nc2ccc3c(N4CCCC4)ncnc3c2)c1 classassignment=b1
molecule=CC(C)c1ccc(CC(=O)N2CCCc3ncc(C(=O)Nc4cccnc4)cc32)cc1 classassignment=b1
molecule=CC(=O)c1c(C)[nH]c(C(=O)Nc2cccc(S(=O)(=O)Nc3ccc(Br)c(F)c3)c2)c1C classassignment=b2
molecule=Cc1cc(NS(=O)(=O)c2ccc(NC(=O)Cc3ccc(F)c(Cl)c3)cc2)no1 classassignment=b2
molecule=Cc1nc2sccn2c(=O)c1S(=O)(=O)Nc1ccc(N2CCN(C)CC2)cc1 classassignment=b2
molecule="Cc1nnc(N2C(=O)c3oc4ccccc4c(=O)c3C2c2ccc(F)cc2)s1 (stereo not given)" classassignment=b2
molecule=Cc1ccc(-c2cc(C(=O)Nc3ccc(-c4noc(=O)[nH]4)cc3)c3ccccc3n2)cc1C classassignment=b2
molecule=O=C1Nc2ccccc2/C1=C\c1ccc(C(=O)O)cc1 classassignment=b2
molecule=O=S(=O)(Nc1cccc2ccccc12)c1ccc(NCc2ccc(Br)cc2O)cc1 classassignment=b1
molecule=COc1ccc(CN2CCc3nc(N4CCN(c5ccc(F)cc5)CC4)ncc3C2)c(OC)c1OC classassignment=b0
molecule=O=C(Nc1ncc(Cc2ccc(C(F)(F)F)cc2)s1)c1cnc(-c2ccccc2)s1 classassignment=b2
molecule=COc1cccc(-n2nc(C(=O)O)cc2-c2ccc(C3CCCCC3)c(Cl)c2)c1 classassignment=b2
molecule=Cc1ccc(C(=O)Nc2nc(-c3ccccn3)cs2)cc1S(=O)(=O)N1CCOCC1 classassignment=b1
molecule=O=C1CCCC2=C1C1(CCCC1)N=C(Nc1nc3cc(Cl)ccc3o1)N2 classassignment=b0
molecule=COc1cncc(Nc2ncc(-c3cccc(N(C)C)c3)c3c2OCC3)c1 classassignment=b2
molecule=COc1ccc(NC(=O)c2[nH]c(C)c(C(C)=O)c2C)cc1S(=O)(=O)N(C)C classassignment=b2

* * *

- conditionContext: rat; liver microsomes; pH 7.4; 15.0 min; 1.0 µM
Simple rule here: half-life less than 4 min is true (1), otherwise false (0).

compound=COc1cc2c(cc1NC(=O)COc1ccc(Cl)cc1)oc1ccccc12 classassignment="false (0)"
compound=Cc1ccccc1C(=O)N1CCC(C(=O)N2CCC(N3Cc4ccccc4C3=O)CC2)CC1 classassignment="false (0)"
compound="COc1cc(C(=O)NC2CCCc3c2[nH]c2c(Cl)cccc32)cc(OC)c1OC (stereo not given)" classassignment="false (0)"
compound=c1c[nH]c(C2CCN(c3ncc(-c4ccc5c(c4)OCCCO5)s3)CC2)n1 classassignment="false (0)"
compound=Cc1ccc(-n2c(=O)c3oc4ccccc4c3n(CC(=O)Nc3ccc(F)c(Cl)c3)c2=O)cc1C classassignment="false (0)"
compound=Cn1cc(S(=O)(=O)N2CCOCC2)cc1C(=O)Nc1ccc(Cl)c(C(F)(F)F)c1 classassignment="false (0)"
compound=COc1ccc(C(=O)c2sc(Nc3cccc(Cl)c3)nc2N)cc1 classassignment="false (0)"
compound="CCCCOC(=O)c1ccnc2cc(C(OCCN3CCCCC3)c3ccccc3Cl)sc12 (stereo not given)" classassignment="true (1)"
compound=COC(=O)CSc1nc(-c2ccccc2)cc(-c2ccco2)c1C#N classassignment="true (1)"
compound=Clc1ccc2ncc(-c3cccc(NC4CNC4)n3)n2c1 classassignment="false (0)"

* * *

- conditionContext: rat; liver microsomes; pH 7.4; 15.0 min; 1.0 µM
Quick list: half-life per entry.
quantityName: half-life (min)

molecule=CC[C@@H]1C(=O)N(C)c2cnc(Nc3ccc(C(=O)NC4CCN(C)CC4)cc3OC)nc2N1C1CCCC1 relationqualifier=> observedvalue=30
molecule=CCOC(=O)c1ccc2c(c1)c(C(C)=O)c(C)n2-c1ccc(OC)cc1 relationqualifier== observedvalue=1.5
molecule=Cc1cccc(-n2cnc3cc(C(=O)N4CCC(Br)CC4)ccc32)c1 relationqualifier== observedvalue=2.5
molecule="CC1(C)CC(=O)C2=C(C1)NC(Nc1nc3ccccc3o1)=NC2c1ccccc1Cl (stereo not given)" relationqualifier== observedvalue=11
molecule=COc1cc(Nc2nc(-c3ccncc3)nc3ccccc23)ccc1N1CCN(C)CC1 relationqualifier== observedvalue=11

* * *

- conditionContext: rat; liver microsomes; pH 7.4; 15.0 min; 1.0 µM
Cut-off 6 min on half-life, inclusive. At or above means rule met; below means rule not met.

compound=COc1ccccc1-c1nc(NCc2ccc(-c3cccnc3)cc2)c2ccccc2n1 classassignment="rule not met"
compound=O=C(COC(=O)CCC(=O)c1cccs1)NCc1ccco1 classassignment="rule not met"
compound=O=C(c1ccc2c(c1)ncn2-c1cccc(C(F)(F)F)c1)N1CCCCC1 classassignment="rule not met"
compound="CSc1ccccc1N1CCN(CCCCCC(=O)NC2CCCc3ccccc32)CC1 (stereo not given)" classassignment="rule not met"
compound=CCc1cccc(NC(=O)CSc2nc3ccccc3nc2N2CCCCC2)c1 classassignment="rule not met"
compound=CCCCCOc1ccccc1/C(=C\SC)n1ccnc1 classassignment="rule met"
compound=COc1ccc(CCNC(=O)c2cc3c(=O)n4ccccc4nc3n(CCCN3CCOCC3)c2=N)cc1 classassignment="rule met"
compound=Cn1cc(C2=C(c3cn(CCCSC(=N)N)c4ccccc34)C(=O)NC2=O)c2ccccc21 classassignment="rule not met"
compound=Cc1noc(C)c1[S+](=O)([O-])N1CCC2(CC1)CC(c1cccc(C(F)(F)F)c1)=NO2 classassignment="rule met"
compound=COc1cc(-c2c(C#N)c(N)nc3c2c(C)nn3-c2ccc(F)cc2)ccc1O classassignment="rule met"
compound=CCOc1ccc(/C=C/c2nc3ccccc3n2S(=O)(=O)c2ccc(Br)cc2)cc1 classassignment="rule met"
compound=Cc1ccc(S(=O)(=O)Nc2cnccc2C(=O)Nc2nc(C(=O)O)cs2)cc1 classassignment="rule met"
compound=Cc1nn2c(c1-c1ccccc1-c1ccccc1)N(CC1CC1)CCC2 classassignment="rule not met"
compound="COc1ccc(-n2nc(C3CCCN(C(=O)c4cccc(OC)c4)C3)[nH]c2=O)cc1 (stereo not given)" classassignment="rule met"
compound=Cc1noc(-c2cn(C3CCN(C(=O)c4ccc(OC(F)(F)F)cc4)CC3)nn2)n1 classassignment="rule met"
compound=Cc1ccc(S(=O)(=O)Nc2nc3ccc(C)cc3nc2Nc2ccc3c(c2)OCO3)cc1 classassignment="rule met"
compound=Cc1ccc(S(=O)(=O)Nc2cnccc2C(=O)Nc2nc(-c3cccc(F)c3)cs2)cc1 classassignment="rule met"
compound=O=C1Nc2ccccc2/C1=C/c1cc(Cl)c(O)c(Cl)c1 classassignment="rule met"
compound=O=[S+]([O-])(Nc1ccc(C2CCNCC2)cc1)c1ccc(NCc2ccc(Br)cc2O)cc1 classassignment="rule met"
compound=CCCNC(=O)Nc1ccc(Oc2ncnc3cc(OC)c(OC)cc23)cc1Cl classassignment="rule met"
compound=COc1ccccc1N1CCN(c2ccc3cc(S(=O)(=O)N4CCCCC4)ccc3n2)CC1 classassignment="rule not met"
compound="CC(C)C(=O)N1CCc2ccc(OCc3nc(C(=O)N4CCCC4)co3)cc2C1c1cccc(F)c1 (stereo not given)" classassignment="rule not met"
compound=CC(=O)c1c(C)[nH]c(C(=O)Nc2ccc(C)c(S(=O)(=O)N3CCCCCC3)c2)c1C classassignment="rule not met"
compound=O=C(O)c1ccnc2cc(-c3nc4ccccc4n3CCN3CCCCC3)sc12 classassignment="rule met"
compound=CNc1nc(-c2ccc3c(N)n[nH]c3c2)cc(N2C[C@@H](C(=O)NC3CCCCC3)CC[C@@H]2C)n1 classassignment="rule not met"
compound=O=S(=O)(Nc1nc2ccccc2s1)c1ccc(NCc2cccc(Cl)c2O)cc1 classassignment="rule met"
compound=Cc1ccnc(NC(=S)N2CCN(c3cc(Cl)cc(Cl)c3)CC2)c1 classassignment="rule met"
compound=N[C@@H](CSCc1ccccc1)C(=O)O classassignment="rule met"
compound=Fc1cc(Nc2nc(-c3ccncc3)nc3ccccc23)ccc1-n1cncn1 classassignment="rule met"
compound=CNc1oc(-c2cccc(-c3ccccc3)c2)nc1C#N classassignment="rule met"
compound=Cc1nc([C@](C)(O)CO)sc1-c1cnc(N)c(O[C@H](C)c2cc(F)ccc2-n2nccn2)c1 classassignment="rule met"
compound=Cc1nc2ccc(NC(=O)c3cc(S(=O)(=O)N(C)c4ccccc4)ccc3Cl)cc2s1 classassignment="rule not met"
compound=CCN(CCCOc1ccc2c(Nc3cc(CC(=O)Nc4cccc(F)c4)[nH]n3)ncnc2c1)CCOP(=O)(O)O classassignment="rule met"
compound=Cc1ccc([S+](=O)([O-])n2cc(Cc3ccc(-c4ccccc4)cc3)c3ccccc32)cc1 classassignment="rule met"
compound=CCOc1ccccc1N(CC(=O)N1CCOCC1)S(=O)(=O)c1ccc(SC)cc1 classassignment="rule not met"
compound="Cc1nn(Cc2ccccc2Cl)c(C)c1CN(C)CC(O)COc1ccc(Cl)cc1 (stereo not given)" classassignment="rule not met"
compound=O=S(=O)(Nc1nccs1)c1ccc(NCc2cccc3cc[nH]c23)cc1 classassignment="rule met"

The measurements presented in this section are drawn from PubChem BioAssay AID1508591.
